FYI, the data here is from ChEMBL document CHEMBL1909046.

Molecular target: Adenosine receptor A2a (Homo sapiens, UniProt P29274)
Sequence (P29274 whole entry): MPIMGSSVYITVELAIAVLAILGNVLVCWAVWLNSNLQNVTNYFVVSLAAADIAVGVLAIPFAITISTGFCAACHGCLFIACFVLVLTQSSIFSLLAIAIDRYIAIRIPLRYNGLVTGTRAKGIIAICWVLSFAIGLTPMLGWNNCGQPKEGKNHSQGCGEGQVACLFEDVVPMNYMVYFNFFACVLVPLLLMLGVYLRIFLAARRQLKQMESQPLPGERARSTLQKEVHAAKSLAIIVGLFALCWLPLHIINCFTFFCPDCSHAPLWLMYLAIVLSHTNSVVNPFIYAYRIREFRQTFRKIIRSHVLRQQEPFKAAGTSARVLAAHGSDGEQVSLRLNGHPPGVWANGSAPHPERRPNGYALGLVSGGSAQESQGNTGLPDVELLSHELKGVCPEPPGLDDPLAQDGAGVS
Test: DRUGMATRIX: Adenosine A2A radioligand binding (ligand: […])
Assay type: cell membranes, HEK293, Membrane
Conditions: Not Active = under 50% inhibition at 10 µM; read-out: IC50
Items are presented alongside their recorded pIC50.
// field semantics: pIC50 = negative decimal log of concentration (mol/L)

# annotated cases, reported pIC50 shown
Cc1cc2cc3c(C)cc(=O)oc3c(C)c2o1 [TRIOXSALEN]: 5.88
COC(=O)C1=C(C)NC(C)=C(C(=O)OCC(C)C)C1c1ccccc1[N+](=O)[O-] (stereo not drawn) [NISOLDIPINE]: 5.39

Ask | What value of pIC50 has been recorded for this entry: CN(C)c1ccc(C(=C2C=CC(=[N+](C)C)C=C2)c2ccc(N(C)C)cc2)cc1.[Cl-] [GENTIAN VIOLET]
Reply | 5.47
